For each of the molecules below, state its Dmax.
Target: EGFR (HCC827 cells) (Homo sapiens, UniProt P00533, DEL746-750)
Construct: endogenous in cells; host or cells: HCC827
Sequence (P00533 with tags, fused parts or gaps DEL746-750): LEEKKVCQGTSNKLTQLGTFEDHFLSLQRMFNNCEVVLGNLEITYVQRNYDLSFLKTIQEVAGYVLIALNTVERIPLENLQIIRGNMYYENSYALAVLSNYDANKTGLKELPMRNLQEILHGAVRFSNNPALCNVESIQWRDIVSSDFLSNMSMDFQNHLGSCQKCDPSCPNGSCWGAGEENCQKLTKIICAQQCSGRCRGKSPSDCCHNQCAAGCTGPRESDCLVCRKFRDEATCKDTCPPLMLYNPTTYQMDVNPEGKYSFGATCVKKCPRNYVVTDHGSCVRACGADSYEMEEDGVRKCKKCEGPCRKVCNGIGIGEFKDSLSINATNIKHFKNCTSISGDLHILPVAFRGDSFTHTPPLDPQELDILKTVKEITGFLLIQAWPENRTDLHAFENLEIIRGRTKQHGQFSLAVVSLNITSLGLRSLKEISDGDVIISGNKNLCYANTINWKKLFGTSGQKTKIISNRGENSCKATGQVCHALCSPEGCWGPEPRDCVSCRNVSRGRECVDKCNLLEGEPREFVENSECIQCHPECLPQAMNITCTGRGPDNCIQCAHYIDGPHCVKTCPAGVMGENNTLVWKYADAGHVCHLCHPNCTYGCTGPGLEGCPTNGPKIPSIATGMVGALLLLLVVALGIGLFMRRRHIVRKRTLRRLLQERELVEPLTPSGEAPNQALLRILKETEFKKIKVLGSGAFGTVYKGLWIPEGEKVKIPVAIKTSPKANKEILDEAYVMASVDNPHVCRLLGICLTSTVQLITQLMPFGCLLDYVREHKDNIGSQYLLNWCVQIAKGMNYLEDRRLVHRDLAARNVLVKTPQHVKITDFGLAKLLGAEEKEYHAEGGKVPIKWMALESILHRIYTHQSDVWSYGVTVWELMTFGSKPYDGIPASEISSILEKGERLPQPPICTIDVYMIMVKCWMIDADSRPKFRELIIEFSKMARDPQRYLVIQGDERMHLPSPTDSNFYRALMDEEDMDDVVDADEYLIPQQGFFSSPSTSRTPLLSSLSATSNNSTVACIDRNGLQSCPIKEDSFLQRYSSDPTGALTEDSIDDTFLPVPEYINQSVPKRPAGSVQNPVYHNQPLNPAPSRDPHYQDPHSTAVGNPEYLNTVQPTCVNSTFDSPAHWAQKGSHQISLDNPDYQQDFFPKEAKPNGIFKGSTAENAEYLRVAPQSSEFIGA
Experiment: EGFR degradation HTRF assay, HCC827 cells
Assay type: cell-based
Conditions: HCC827, 16h treatment, maximum percentage of degradation
Method: BaF3 WT(wild type), BaF3-LTC(L858R/T790M/C797S) and BaF3-DTC(Del19/T790M/C797S) cells are treated with compounds diluted in 0.2% DMSO cell culture medium and incubate for 16h, 37° C., 5% CO2, H1975-#36, H1975-#28, H1975-#23 and HCC827 cells are treated with compounds diluted in 0.2% DMSO cell culture medium on day 2, incubate for 16h, 37° C., 5% CO2.the final concentriation of compounds in all assay is start with 10 uM, 5-fold dilution, total 8 doses were included. […]
One number for each entry, in %.

Worked cases, Dmax given:
COc1cc(N2CCN(CC3CCN(c4ccc(N5CCC(=O)NC5=O)cc4F)CC3)CC2)c(C)cc1Nc1ncc(Br)c(Nc2ccc3nccnc3c2P(C)(C)=O)n1 = 62.8
CCc1cc(Nc2ncc(Br)c(Nc3ccc4nccnc4c3P(C)(C)=O)n2)c(OC)cc1N1CCC(N2CCN(C(=O)C3CCN(c4cc(F)c(C5CCC(=O)NC5=O)c(F)c4)CC3)CC2)CC1 (stereo not drawn) = 77.7
CCc1cc(Nc2ncc(Br)c(Nc3ccc4nccnc4c3P(C)(C)=O)n2)c(OC)cc1N1CCC(N2CCN(CCOCCC(=O)N[C@H](C(=O)N3C[C@H](O)C[C@H]3C(=O)NCc3ccc(-c4scnc4C)cc3)C(C)(C)C)CC2)CC1 = 84.2
COc1cc(N2CCC(N(C)CC3CCN(c4ccc(N5CCC(=O)NC5=O)c(C)c4)CC3)CC2)c(C)cc1Nc1ncc(Br)c(Nc2ccc3nccnc3c2P(C)(C)=O)n1 = 74.2
COc1cc(N2CCC(N3CCN(C(=O)CC4CCN(c5ccc(C6CCC(=O)NC6=O)cc5)CC4)CC3)CC2)ccc1Nc1ncc(Cl)c(Nc2ccccc2N(C)S(C)(=O)=O)n1 (stereo not drawn) = 69.2
CCc1cc(Nc2ncc(Br)c(Nc3ccc4nccnc4c3P(C)(C)=O)n2)c(OC)cc1N1CCC(N2CCN(CCc3ccc(C4CCC(=O)NC4=O)c(Cl)c3)CC2)CC1 (stereo not drawn) = 83.6
COc1cc(N2CCC(N3CCN(CCc4ccc(CN5CCC(=O)NC5=O)cc4)CC3)CC2)ccc1Nc1ncc(Cl)c(Nc2ccccc2P(C)(C)=O)n1 = 81.1
COc1cc(N2CCC(N3CCN(C(=O)CCCCN4CCN(c5ccc6c(c5)C(=O)N(C5CCC(=O)NC5=O)C6=O)CC4)CC3)CC2)ccc1Nc1ncc(Cl)c(Nc2ccccc2P(C)(C)=O)n1 (stereo not drawn) = 82.4
COc1cc(N2CCC(N3CCN(C(=O)C4CCN(CC5CCN(c6ccc7c(c6)C(=O)N(C6CCC(=O)NC6=O)C7=O)CC5)CC4)CC3)CC2)ccc1Nc1ncc(Cl)c(Nc2ccccc2NS(C)(=O)=O)n1 (stereo not drawn) = 89.4
CN(c1ccccc1Nc1nc(Nc2ccc(N3CC4(CN(CCc5ccc(NC6CCC(=O)NC6=O)cc5)C4)C3)c(F)c2)ncc1Cl)S(C)(=O)=O (stereo not drawn) = 79.5

Parameter requested: Dmax. Apply to each item below.
1. CCc1cc(Nc2ncc(Br)c(Nc3ccc4nccnc4c3P(C)(C)=O)n2)c(OC)cc1N1CCC(N2CCN(CC3CCN(c4ccc(C5CCC(=O)NC5=O)cc4)CC3)CC2)CC1 (stereo not drawn)
2. COc1cc(N2CCC(N(C)CCOc3ccc(C4CCC(=O)NC4=O)cc3)CC2)c(C)cc1Nc1ncc(Br)c(Nc2ccc3nccnc3c2P(C)(C)=O)n1 (stereo not drawn)
3. COc1cc(N2CCC(N(C)CC3CCN(c4ccc(N5CCC(=O)NC5=O)cc4)CC3)CC2)c(C)cc1Nc1ncc(Br)c(Nc2ccc3nccnc3c2P(C)(C)=O)n1

67.5
77.1
72.1
